Assign melting point to each entry below.
Numbers only, in °C.

INSERT INTO results (compound, valueunits, measurement) VALUES
  ('Cc1cc(C2=CCC(c3ccc(O)cc3)CC2)cc(C)c1O (stereo not drawn)', '°C', 224);

Dear reader, for each entry below, please note its melting point.
1. CC(C)(C)c1cc(C2=CCC(c3ccc(O)cc3)CC2)ccc1O (stereo not drawn)
2. Cc1cc(-c2ccc(-c3ccc(O)cc3)cc2)ccc1O
3. Cc1cc(-c2ccc(-c3ccc(O)cc3)cc2)cc(C)c1O
4. Cc1cc(C2=CCC(c3ccc(O)cc3)CC2)ccc1O (stereo not drawn)

Ans.
[188, 251.4, 231, 201]

Qu. Look up melting point for this compound: Cc1cc(C2CCC(c3ccc(O)cc3)CC2)ccc1O (stereo not drawn)
Ans. 159
